Molecular target: T1, human cANGPTL4 (C-terminal fragment of Angiopoietin-like 4 protein) (human, UniProt Q9BY76 186-406, limits assumed)
T1 construct: domain: C-terminal fragment (cANGPTL4); Purified cANGPTL4 was immobilised by amine coupling on the CM5 chip for SPR and on carboxylated microwell plates for ELISA; also called purified cANGPTL4; human cANGPTL4 antigen
T1 sequence (looked up): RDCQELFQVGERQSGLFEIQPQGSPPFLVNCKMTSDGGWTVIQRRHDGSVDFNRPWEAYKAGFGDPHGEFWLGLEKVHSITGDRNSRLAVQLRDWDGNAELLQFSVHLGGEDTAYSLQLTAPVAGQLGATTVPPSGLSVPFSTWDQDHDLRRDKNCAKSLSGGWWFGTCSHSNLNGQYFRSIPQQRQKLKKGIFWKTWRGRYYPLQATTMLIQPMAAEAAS
Assay: SPR (BIACORE 3000), cANGPTL4 amine-coupled to CM5 chip, antibody as analyte
The entries below are paired with their reported Fold increase (affinity against control 11F6C4).
# include the unit after the value

{"binder": "Antuzumab 3 (antibody, V domains shown, Humanized monoclonal antibody made in CHO cells; also called ANG27; ANGH1 + ANGK1) VH: QITLKESGPTLVKPTQTLTLTCTFSGFSLSTSGMGVGWIRQPPGKALEWLAHIWWDDDKYYNPSLKSRLTITKDTSKNQVVLTMTNMDPVDTATYYCARKDYGSSYDYWGQGTLVTVSS VL: DIVMTQSPDSLAVSLGERATINCKASQSVDYDGDSYLNWYQQKPGQPPKLLIYTASNLESGVPDRFSGSGSGTDFTLTISSLQAEDVAVYYCQQSNEDPWTFGQGTKVEIK", "result": "1.85 fold"}
{"binder": "Antuzumab 2 (antibody, V domains shown, Humanized monoclonal antibody made in CHO cells; also called ANG50; ANGH4 + ANGK4) VH: QITLKESGPTLVKPTQTLTLTCTFSGFSLSTSGMGVGWIRQPPGKALEWLAHIWWDDDKYYNPSLKSRLTITKDTSKNQVDLTMTFMDPWDTATYYCAHKDYGSSYDYWGQGTLVTVSS VL: DIQMTQSPSSLSASVGDRVTITCKASQSVDYDGDSYLNWYQQKPGKAPNLLIYTASNLESGVPSRFSGSGSGTDFTLTISSLQPEDFATYYCQQSNEDPWTFGEGTKVEIK", "result": "5.37 fold"}
{"binder": "murine monoclonal antibody mAb11F6C4 (antibody, V domains shown, Murine monoclonal antibody, the parent of the humanized antibodies; also called Control 11F6C4; original mouse-derived mAb) VH: QITLKESGPGILKPSQTLSLTCSFSGFSLSTSGMGVGWIRQPSGKGLEWLAHIWWDDDKYYNPSLKSQLTISKDTSRNQVFLKITSVDTADTATYYCARKDYGSSYDYWGQGTTLTVSS VL: DIVLTQSPASLAVSLGQRATISCKASQSVDYDGDSYLNWFQQKPGQPPKLLIYTASNLESGIPARFSGSGSGTDFTLNIHPVEEEDAATYYCQQSNEDPWTFGGGTTLEIK", "result": "1 fold"}

Let's switch to this binder now.
Q) Report Fold increase (affinity against control 11F6C4) for Antuzumab 1 (antibody, V domains shown, Humanized monoclonal antibody made in CHO cells; also called ANG49; ANGH3 + ANGK3) VH: QVTLKESGPTLVKPTQTLTLTCTFSGFSLSTSGMGVGWIRQPPGKALEWLAHIWWDDDKYYNPSLKSRLTISKDTSKNQVVLTMTNMDPVDTATYYCARKDYGSSYDYWGQGTTVTVSS VL: DIVMTQSPLSLPVTPGEPASISCKASQSVDYDGDSYLNWYLQKPGQSPRLLIYTASNLESGVPDRFSGSGSGTDFTLKISRVEAEDVGVYYCFQSNEDPWTFGQGTKLEIK please.
A) 7.86 fold
